Quick reference: autophagy induction of the listed items.
test system: U2OS; experiment: Here: values are normalized to the negative (DMSO; defined as 0% autophagy induction) and positive (250nM Torin1; mTOR inhibitor; defined as maximal inducer of autophagy = 100%) control compounds and represented as % of autophagy induction. […] The impact of autophagy induction on cells is complex and depends on the affected target. As such, the magnitude of a phenotype may not be equally mirrored in the %-value of autophagy induction and vice versa. The dynamics of the induction may indicate the mode of activation: e.g. activation via phosphorylation or a signaling cascade may occur fast, while activation via transcription factors may take considerably longer. […] Of note, treatment concentrations may be sub-optimal for specific compounds, leading to false negative annotations.; assay type: functional, Homo sapiens; conditions: Compound Concentration 2 uM, Timepoint 60 hours, Culturing Media DMEM, 1 % Penicillin/Streptomycin, 10% Fetal bovin serum Add-On: No, Screening Media Control DMEM, Screening Media Samples DMEM

compound string | autophagy induction (%)
C[C@H](CO)Nc1nc(SCc2cccc(Cl)c2F)nc2[nH]c(=O)sc12 | -0.5002
N#Cc1ccc(NC(=O)Nc2ccccc2Br)c2nn[nH]c12 | 114.288
O=C(O)C1CN(Cc2ccc(-c3nc4cc(Cc5ccccc5F)ccc4s3)c(F)c2)C1 | -0.7655
CCc1cc(C(C)=O)c(O)cc1OCCCCCC(C)(C)c1nn[nH]n1 | 0.1348
COc1ccc(S(=O)(=O)c2cc(OC)ccc2S(=O)(=O)c2ccc([C@H](C)NS(C)(=O)=O)cc2)cc1 | 0.5012
CCOC(=O)c1cc(C#N)c(N2CCC(C(=O)NS(=O)(=O)Cc3ccccc3)CC2)nc1C | -0.02347
CC(C)C[C@H](NC(=O)N1CCCCCC1)C(=O)N[C@H](Cc1cn(C)c2ccccc12)C(=O)N[C@H](Cc1ccccn1)C(=O)O | -0.2043
O=C(O)COc1cccc(CN(Cc2ccc(-n3cccn3)cc2)S(=O)(=O)c2cccnc2)c1 | 114.202
CN(C)S(=O)(=O)c1ccc(NC(=S)N2CCC(C(O)(c3ccccc3)c3ccccc3)CC2)cc1 | -1.351
COC1CCN(c2cccc(-c3cc(NC(C)=O)nc(-n4nc(C)cc4C)n3)n2)CC1 | -0.6053
CCCSc1nc(N[C@@H]2C[C@H]2c2ccc(F)c(F)c2)c2nnn([C@@H]3C[C@H](OCCO)[C@@H](O)[C@H]3O)c2n1 | -3.163
O=C(O)C1CN(Cc2ccc(OCc3ccc(Cl)c(Cl)c3)cc2)C1 | 0.8248
N#Cc1c[nH]c2c(C(=O)N3CCN(CCc4ccc(F)cc4)CC3)cccc12 | -2.524
